- Measured Target: p70S6K human enzyme (Homo sapiens, UniProt P23443, T412E)
- Construct: purchased Upstate Chemicon 14-486
- Sequence (P23443 1-421 T412E limits assumed): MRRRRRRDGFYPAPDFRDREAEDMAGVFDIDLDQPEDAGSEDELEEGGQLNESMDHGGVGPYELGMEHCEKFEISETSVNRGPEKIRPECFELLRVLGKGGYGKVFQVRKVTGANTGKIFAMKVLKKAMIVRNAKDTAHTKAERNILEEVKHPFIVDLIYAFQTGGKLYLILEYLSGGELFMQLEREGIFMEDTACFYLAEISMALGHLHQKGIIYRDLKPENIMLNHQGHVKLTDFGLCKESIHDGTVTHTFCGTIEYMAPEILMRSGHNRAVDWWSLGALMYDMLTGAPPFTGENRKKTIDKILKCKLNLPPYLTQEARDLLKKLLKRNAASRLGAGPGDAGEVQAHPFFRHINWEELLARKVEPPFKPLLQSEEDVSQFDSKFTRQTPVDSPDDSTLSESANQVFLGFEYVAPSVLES
- Assay Protocol: p70S6K inhibition assay (IMAP FP);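 further: kinase reaction run at room temperature, phosphorylated substrate captured on IMAP beads and read as fluorescence polarization in mP, IC50 then converted to Ki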
- Assay type: biochemical
- Test Conditions: 30 μM ATP; Ki=IC50/(1+([ATP Challenge]/EC50 ATP)); read-out: p70S6K Ki, Avg
Each entry below carries its recorded log10 Ki.
Measured Attribute: log10 Ki (log10 of the value in nM)

[[record]]
compound = "COc1ccc(CN2CC[C@@H](Nc3cccc4cnccc34)C2)cc1 [Compound 2.047]"
assay_value = 2.64

[[record]]
compound = "Fc1ccc(CN2CCC[C@@H](Nc3ccc4[nH]ncc4c3)C2)cc1 [Compound 1.146]"
assay_value = 2.87

[[record]]
compound = "CSc1cccc(CN2CCC[C@H](Nc3ccc4[nH]ncc4c3)C2)c1 [Compound 1.158]"
assay_value = 3.29

[[record]]
compound = "CS(=O)(=O)Nc1cccc(CN2CCCC(Nc3ccc4[nH]ncc4c3)C2)c1 (stereo in doubt) [Compound 1.091]"
assay_value = 3.15

[[record]]
compound = "COc1ccc(CN2CCC[C@@H](Nc3ccc4[nH]ncc4c3)C2)cc1 [Compound 1.226]"
assay_value = 3.13

[[record]]
compound = "NC(=O)Cn1ccc2cc(CN3CC[C@@H](Nc4cccc5cnccc45)C3)ccc21 [Compound 2.059]"
assay_value = 2.32

[[record]]
compound = "NS(=O)(=O)c1cccc(CN2CCC[C@@H](Nc3ccc4[nH]ncc4c3)C2)c1 [Compound 1.249]"
assay_value = 2.97

[[record]]
compound = "OCc1ccc(CN2CCC[C@H](Nc3ccc4[nH]ncc4c3)C2)cc1 [Compound 1.223]"
assay_value = 3.49

